protocolText: Biodistribution of radiometal-DOTA-BBN conjugates in CF1 normal mice
conditions: 1 hour post-injection
Entries and their measured Avg % ID/gm, Liver follow.
measurementKind: Avg % ID/gm, Liver (% ID/gm)

INSERT INTO assay_data (compound, measurementkind, measuredresult) VALUES
  ('CSCC[C@H](NC(=O)[C@H](CC(C)C)NC(=O)[C@H](Cc1c[nH]cn1)NC(=O)CNC(=O)[C@@H](NC(=O)[C@H](C)NC(=O)[C@H](Cc1c[nH]c2ccccc12)NC(=O)[C@H](CCC(N)=O)NC(=O)CCCCNC(=O)CN1CCN(CC(=O)O)CCN(CC(=O)O)CCN(CC(=O)O)CC1)C(C)C)C(N)=O [149Pm-DOTA-5-Ava-BBN[7-14]NH2]', 'Avg % ID/gm, Liver', 0.23),
  ('CSCC[C@H](NC(=O)[C@H](CC(C)C)NC(=O)[C@H](Cc1cnc[nH]1)NC(=O)CNC(=O)[C@@H](NC(=O)[C@H](C)NC(=O)[C@H](Cc1c[nH]c2ccccc12)NC(=O)[C@H](CCC(N)=O)NC(=O)CCCCCCCNC(=O)CN1CCN(CC(=O)O)CCN(CC(=O)O)CCN(CC(=O)O)CC1)C(C)C)C(N)=O [177Lu-DOTA-8-Aoc-BBN[7-14]NH2] [metal not drawn]', 'Avg % ID/gm, Liver', 0.23),
  ('CSCC[C@H](NC(=O)[C@H](CC(C)C)NC(=O)[C@H](Cc1cnc[nH]1)NC(=O)CNC(=O)[C@@H](NC(=O)[C@H](C)NC(=O)[C@H](Cc1c[nH]c2ccccc12)NC(=O)[C@H](CCC(N)=O)NC(=O)CCCCCCCNC(=O)CN1CCN(CC(=O)O)CCN(CC(=O)O)CCN(CC(=O)O)CC1)C(C)C)C(N)=O [149Pm-DOTA-8-Aoc-BBN[7-14]NH2]', 'Avg % ID/gm, Liver', 0.19),
  ('CSCC[C@H](NC(=O)[C@H](CC(C)C)NC(=O)[C@H](Cc1cnc[nH]1)NC(=O)CNC(=O)[C@@H](NC(=O)[C@H](C)NC(=O)[C@H](Cc1c[nH]c2ccccc12)NC(=O)[C@H](CCC(N)=O)NC(=O)CCNC(=O)CN1CCN(CC(=O)O)CCN(CC(=O)O)CCN(CC(=O)O)CC1)C(C)C)C(N)=O [149Pm-DOTA-β-Ala-BBN[7-14]NH2]', 'Avg % ID/gm, Liver', 0.15),
  ('CSCC[C@H](NC(=O)[C@H](CC(C)C)NC(=O)[C@H](Cc1cnc[nH]1)NC(=O)CNC(=O)[C@@H](NC(=O)[C@H](C)NC(=O)[C@H](Cc1c[nH]c2ccccc12)NC(=O)[C@H](CCC(N)=O)NC(=O)CN1CCN(CC(=O)O)CCN(CC(=O)O)CCN(CC(=O)O)CC1)C(C)C)C(N)=O [177Lu-DOTA-0-BBN[7-14]NH2] [metal not drawn]', 'Avg % ID/gm, Liver', 0.09),
  ('CSCC[C@H](NC(=O)[C@H](CC(C)C)NC(=O)[C@H](Cc1c[nH]cn1)NC(=O)CNC(=O)[C@@H](NC(=O)[C@H](C)NC(=O)[C@H](Cc1c[nH]c2ccccc12)NC(=O)[C@H](CCC(N)=O)NC(=O)CCCCCCCCCCNC(=O)CN1CCN(CC(=O)O)CCN(CC(=O)O)CCN(CC(=O)O)CC1)C(C)C)C(N)=O [177Lu-DOTA-11-Aun-BBN[7-14]NH2] [metal not drawn]', 'Avg % ID/gm, Liver', 1.65),
  ('CSCC[C@H](NC(=O)[C@H](CC(C)C)NC(=O)[C@H](Cc1c[nH]cn1)NC(=O)CNC(=O)[C@@H](NC(=O)[C@H](C)NC(=O)[C@H](Cc1c[nH]c2ccccc12)NC(=O)[C@H](CCC(N)=O)NC(=O)CCCCNC(=O)CN1CCN(CC(=O)O)CCN(CC(=O)O)CCN(CC(=O)O)CC1)C(C)C)C(N)=O [177Lu-DOTA-5-Ava-BBN[7-14]NH2] [metal not drawn]', 'Avg % ID/gm, Liver', 0.09),
  ('CSCC[C@H](NC(=O)[C@H](CC(C)C)NC(=O)[C@H](Cc1cnc[nH]1)NC(=O)CNC(=O)[C@@H](NC(=O)[C@H](C)NC(=O)[C@H](Cc1c[nH]c2ccccc12)NC(=O)[C@H](CCC(N)=O)NC(=O)CCNC(=O)CN1CCN(CC(=O)O)CCN(CC(=O)O)CCN(CC(=O)O)CC1)C(C)C)C(N)=O [177Lu-DOTA-β-Ala-BBN[7-14]NH2] [metal not drawn]', 'Avg % ID/gm, Liver', 0.15),
  ('CSCC[C@H](NC(=O)[C@H](CC(C)C)NC(=O)[C@H](Cc1cnc[nH]1)NC(=O)CNC(=O)[C@@H](NC(=O)[C@H](C)NC(=O)[C@H](Cc1c[nH]c2ccccc12)NC(=O)[C@H](CCC(N)=O)NC(=O)CN1CCN(CC(=O)O)CCN(CC(=O)O)CCN(CC(=O)O)CC1)C(C)C)C(N)=O [149Pm-DOTA-0-BBN[7-14]NH2]', 'Avg % ID/gm, Liver', 0.12),
  ('CSCC[C@H](NC(=O)[C@H](CC(C)C)NC(=O)[C@H](Cc1c[nH]cn1)NC(=O)CNC(=O)[C@@H](NC(=O)[C@H](C)NC(=O)[C@H](Cc1c[nH]c2ccccc12)NC(=O)[C@H](CCC(N)=O)NC(=O)CCCCNC(=O)CN1CCN(CC(=O)O)CCN(CC(=O)O)CCN(CC(=O)O)CC1)C(C)C)C(N)=O [111In-DOTA-5-Ava-BBN[7-14]NH2] [metal not drawn]', 'Avg % ID/gm, Liver', 0.16);

# credit: patent US20060067886A1
